Each item that follows carries a reported IC50.
Test: Cytotoxicity MTT assay, AsPc-1
Format: cell-based
Conditions: human, AsPc-1 cells
Field format: number, assumed nM, no unit text.

[[record]]
compound = "CC(=O)O[C@H]1C(=O)[C@@]2(C)[C@H]([C@H](OC(=O)c3ccccc3)[C@]3(O)C[C@H](OC(=O)[C@H](O)[C@@H](NC(=O)c4ccccc4)c4ccccc4)C(C)=C1C3(C)C)[C@]1(OC(C)=O)CO[C@@H]1C[C@@H]2O [Taxol, Paclitaxel, reference compound]"
unit_name = "nM"
measured_result = 190


Request: Report IC50 for NC[C@H]1O[C@@H](O[C@H]([C@H]2O[C@@H](n3ccc(=O)[nH]c3=O)[C@H](O)[C@@H]2O)[C@H](NCCCC(=O)NCc2ccc(N3CCC(Oc4ccc(C(F)(F)F)cc4)CC3)cc2)C(N)=O)[C@H](O)[C@@H]1O [Compound 11] please.
Response: 950
